Origin of values: patent US6407288B1

Reported MIC for target or system A. viscosus, by entry.
Measured property: MIC

Compound	Measurement target	Recorded measurement
O=C(c1ccc(-c2ccccc2)cc1)c1ccc(O)c(C(=O)Nc2cccc(C(F)(F)F)c2)c1 [BPAmF, reference compound]	A. viscosus	> 50 µg/mL
N#Cc1cccc(NC(=O)c2cc(C(=O)c3ccc(-c4ccccc4)cc3)ccc2O)c1 [BPAmC, reference compound]	A. viscosus	> 50 µg/mL
O=C(Nc1cccc(C(F)(F)F)c1)c1cc(C(=O)c2cccc3ccccc23)ccc1O	A. viscosus	< 0.1 µg/mL
CCCCc1ccc(C(=O)c2ccc(O)c(C(=O)Nc3cccc(C(F)(F)F)c3)c2)cc1 [BBAmF, reference compound]	A. viscosus	> 50 µg/mL
